The reported numbers originate from ChEMBL document CHEMBL1135566.

- EXPERIMENTAL_SYSTEM: Estrogen receptor (Homo sapiens)
- Sequence (P03372 whole entry): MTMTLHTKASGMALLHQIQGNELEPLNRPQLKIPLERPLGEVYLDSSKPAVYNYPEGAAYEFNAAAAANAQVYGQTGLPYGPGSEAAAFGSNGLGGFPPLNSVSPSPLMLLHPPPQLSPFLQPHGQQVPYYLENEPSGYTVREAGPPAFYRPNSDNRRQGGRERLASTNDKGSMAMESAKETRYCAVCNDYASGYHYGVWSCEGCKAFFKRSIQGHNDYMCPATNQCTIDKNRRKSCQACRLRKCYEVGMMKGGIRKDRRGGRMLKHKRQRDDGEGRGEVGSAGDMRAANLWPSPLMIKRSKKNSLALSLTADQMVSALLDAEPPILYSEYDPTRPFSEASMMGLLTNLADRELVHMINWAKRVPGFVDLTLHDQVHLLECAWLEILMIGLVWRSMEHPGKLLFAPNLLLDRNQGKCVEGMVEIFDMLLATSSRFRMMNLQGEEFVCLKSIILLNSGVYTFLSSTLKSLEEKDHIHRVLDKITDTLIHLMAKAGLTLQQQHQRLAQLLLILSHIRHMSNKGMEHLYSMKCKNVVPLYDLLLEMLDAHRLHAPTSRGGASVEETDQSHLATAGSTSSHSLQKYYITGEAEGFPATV
- METHOD_DESCRIPTION: Binding constant for Estrogen receptor alpha
QUANTITY_MEASURED: Kd

Param readout= Kd; system= Estrogen receptor (Homo sapiens); entry= "CC/C(=C(/CC)c1ccc(OCCCC(=O)NCc2ccc(-c3c4ccc(=O)cc-4oc4cc(O)ccc34)c(C(=O)O)c2)cc1)c1ccc(O)cc1" ; returns value.
5.8 nM
